assay: Elimination half life in Sprague-Dawley rat at 1 mg/kg, po; type: ADME, organism-based; conditions: in vivo, read-out: beta t1/2 (converted)
recorded-metric: half-life (h)
Quick reminder: number only, in h, skip the unit.

Input: Determine from records and report half-life for C[C@H](NC(=O)c1cc(Cl)cnc1Oc1cccc(F)c1)c1ccc(C(=O)O)cc1
Output: 3.71

====

assay: Solubility of the compound in pH 1.2 simulated gastric fluid; type: physicochemical
recorded-metric: solubility
Mention the unit after the number when you answer.

Input: Determine from records and report solubility for C[C@H](NC(=O)c1cc(Cl)cnc1Oc1cccc(F)c1)c1ccc(C(=O)O)cc1
Output: 0.29 µg/mL

====

assay: Oral bioavailability in Beagle dog at 1 mg/kg; type: ADME, organism-based, Canis lupus familiaris; conditions: in vivo
recorded-metric: bioavailability (%)
Quick reminder: number only, in %, skip the unit.

Input: Determine from records and report bioavailability for C[C@H](NC(=O)c1cc(Cl)cnc1Oc1cccc(F)c1)c1ccc(C(=O)O)cc1
Output: 80.6

====

biological target: Prostaglandin E2 receptor EP2 subtype (Homo sapiens)
Sequence (P43116 whole entry): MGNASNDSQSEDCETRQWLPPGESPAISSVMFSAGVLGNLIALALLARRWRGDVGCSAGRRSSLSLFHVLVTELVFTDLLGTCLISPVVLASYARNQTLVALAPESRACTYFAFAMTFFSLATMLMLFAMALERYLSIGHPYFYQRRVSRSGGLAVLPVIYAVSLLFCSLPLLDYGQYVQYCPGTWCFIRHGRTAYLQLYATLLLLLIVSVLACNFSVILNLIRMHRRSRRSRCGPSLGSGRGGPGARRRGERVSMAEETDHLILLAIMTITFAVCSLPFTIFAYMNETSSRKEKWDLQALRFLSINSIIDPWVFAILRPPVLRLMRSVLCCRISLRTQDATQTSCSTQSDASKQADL
List of pIC50 values.
Quick note: pIC50 means taking -log10 of the concentration in moles per liter.

// solved cases for pIC50 follow
{"smiles": "O=C(O)c1ccc(CNC(=O)c2cc(Cl)cnc2Oc2ccc(F)cc2)cc1", "pIC50": 5.89}
{"smiles": "C[C@H](NC(=O)c1cc(Cl)ccc1Oc1ccc(F)cc1)c1ccc(C(=O)O)cc1", "pIC50": 6.15}
{"smiles": "C[C@H](NC(=O)c1cc(Cl)cnc1Oc1cccc(C#N)c1)c1ccc(C(=O)O)cc1", "pIC50": 5.48}
{"smiles": "C[C@H](NC(=O)c1cc(Cl)cnc1Oc1ccc(F)cc1)c1ccc(C(=O)O)cc1", "pIC50": 5.36}

Moving on to another compound below.
Input: Provide Prostaglandin E2 receptor EP2 subtype (Homo sapiens) pIC50 reading for O=C(O)c1ccc(CNC(=O)c2cc(F)ccc2Oc2ccc(F)cc2)cc1 .
Output: 6.63

====

experiment: Solubility of the compound in pH 6.5 PBS; type: physicochemical
List of solubility values.

{"smiles": "O=C(O)c1ccc(CNC(=O)c2cccc(OCc3nc4cc(F)ccc4s3)c2)cc1", "reported-measurement": "> 10 µM"}
{"smiles": "O=C(O)c1ccc(CNC(=O)c2cc(F)cnc2Oc2ccc(F)cc2)cc1", "reported-measurement": "> 10 µM"}

Input: Determine from records and report solubility for C[C@H](NC(=O)c1cc(Cl)cnc1Oc1cccc(F)c1)c1ccc(C(=O)O)cc1
Output: 73 µg/mL

====

experiment: Elimination half life in Beagle dog at 1 mg/kg, po; assay type: ADME, organism-based, Canis lupus familiaris; settings: in vivo, read-out: beta t1/2 (converted)
recorded-metric: half-life (h)
Quick reminder: number only, in h, skip the unit.

Input: Determine from records and report half-life for C[C@H](NC(=O)c1cc(Cl)cnc1Oc1cccc(F)c1)c1ccc(C(=O)O)cc1
Output: 7.95

====

Protein target, amino acids: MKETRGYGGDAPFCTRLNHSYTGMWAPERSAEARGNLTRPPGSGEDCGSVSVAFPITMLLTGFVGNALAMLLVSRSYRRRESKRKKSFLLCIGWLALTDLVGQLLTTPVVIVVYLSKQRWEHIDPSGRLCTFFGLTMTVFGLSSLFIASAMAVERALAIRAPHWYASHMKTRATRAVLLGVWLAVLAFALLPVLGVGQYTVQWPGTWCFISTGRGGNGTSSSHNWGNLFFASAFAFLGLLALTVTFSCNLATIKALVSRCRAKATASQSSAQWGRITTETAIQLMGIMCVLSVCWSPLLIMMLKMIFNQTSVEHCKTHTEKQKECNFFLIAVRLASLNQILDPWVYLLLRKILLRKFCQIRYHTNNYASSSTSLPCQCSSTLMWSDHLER
recorded-metric: Ki

Input: Determine from records and report Ki for CCc1nc2c(C)nc(C)cc2n1-c1ccc(CCNC(=O)NS(=O)(=O)c2ccc(C)cc2)cc1
Output: > 5 µM
